target: BRD4^BD1 (Homo sapiens); construct: to the isolated BD1 and BD2 domains of BRD2, BRD3 and BRD4; test: competitive fluorescence polarization assay, BRD4 BD1 -/+ presenter protein; type: binding; conditions: absence of FKBP12; 2 nM JQ1-FL tracer; read-out: Binding to BRD4^BD1 - FKBP12 Kd
Attribute: Kd
Just the number please, in nM, no unit attached.

Example results:
MOLECULE	QUANTITATIVE READOUT
C=CC1CN(Cc2cn(CCOCCOCCNC(=O)CC3N=C(c4ccc(Cl)cc4)c4c(sc(C)c4C)-n4c(C)nnc43)nn2)C(=O)C2CCCC1N2S(=O)(=O)c1cc(Cl)cc(Cl)c1 (centres unmarked)	330
Cc1sc2c(c1C)C(c1ccc(Cl)cc1)=NC(CC(=O)N1CCC(CN3CCC(n4cc(C5CN(Cc6ccccn6)C(=O)C6CCCC5N6S(=O)(=O)c5cc(Cl)cc(Cl)c5)nn4)CC3)CC1)c1nnc(C)n1-2 (centres unmarked)	520
Cc1sc2c(c1C)C(c1ccc(Cl)cc1)=NC(CC(=O)N1CCN(CCCCn3cc(COCC4CN(Cc5ccccn5)C(=O)C5CCCC4N5S(=O)(=O)c4cc(Cl)cc(Cl)c4)nn3)CC1)c1nnc(C)n1-2 (centres unmarked)	600
Cc1sc2c(c1C)C(c1ccc(Cl)cc1)=NC(CC(=O)N1CC(CN3CCC(n4cc(COCC5CN(Cc6ccccn6)C(=O)C6CCCC5N6S(=O)(=O)c5cc(Cl)cc(Cl)c5)nn4)CC3)C1)c1nnc(C)n1-2 (centres unmarked) [a11d]	480

// moving on: another record for Kd
Item: Cc1sc2c(c1C)C(c1ccc(Cl)cc1)=NC(CC(=O)NCCOCCn1cc(COC(C)C3CN(Cc4ccccn4)C(=O)C4CCCC3N4S(=O)(=O)c3cc(Cl)cc(Cl)c3)nn1)c1nnc(C)n1-2 (centres unmarked) [a1f] | Kd: 180

====

FKBP12 (Homo sapiens): reported Kd for various compounds.
Just the number please, in nM, no unit attached.

Example results:
COMPOUND	Kd / nM
Cc1sc2c(c1C)C(c1ccc(Cl)cc1)=NC(CC(=O)N1CCC(N3CCC(n4cc(COCC5CN(Cc6ccccn6)C(=O)C6CCCC5N6S(=O)(=O)c5cc(Cl)cc(Cl)c5)nn4)CC3)CC1)c1nnc(C)n1-2 (stereo not shown)	1.7
Cc1sc2c(c1C)C(c1ccc(Cl)cc1)=NC(CC(=O)N1CCC(CN3CCC(n4cc(C5CN(Cc6ccccn6)C(=O)C6CCCC5N6S(=O)(=O)c5cc(Cl)cc(Cl)c5)nn4)CC3)CC1)c1nnc(C)n1-2 (stereo not shown)	3.5
Cc1sc2c(c1C)C(c1ccc(Cl)cc1)=NC(CC(=O)NCCOCCn1cc(C3CN(Cc4ccccn4)C(=O)C4CCCC3N4S(=O)(=O)c3cc(Cl)cc(Cl)c3)nn1)c1nnc(C)n1-2 (stereo not shown)	1

Readout Kd for Cc1sc2c(c1C)C(c1ccc(Cl)cc1)=NC(CC(=O)NCCOCCn1cc(COCC3CN(C(C)c4ccccn4)C(=O)C4CCCC3N4S(=O)(=O)c3cc(Cl)cc(Cl)c3)nn1)c1nnc(C)n1-2 (stereo not shown) , test system FKBP12 (Homo sapiens), was 0.4

Readout Kd for Cc1sc2c(c1C)C(c1ccc(Cl)cc1)=NC(CC(=O)NCCOCCn1cc(COCC3CN(CC(=O)N4CCC(C)CC4)C(=O)C4CCCC3N4S(=O)(=O)c3cc(Cl)cc(Cl)c3)nn1)c1nnc(C)n1-2 (stereo not shown) , test system FKBP12 (Homo sapiens), was 0.47

Readout Kd for Cc1sc2c(c1C)C(c1ccc(Cl)cc1)=NC(CC(=O)N1CCC3(CC1)CC(n1cc(C4CN(Cc5ccccn5)C(=O)C5CCCC4N5S(=O)(=O)c4cc(Cl)cc(Cl)c4)nn1)C3)c1nnc(C)n1-2 (stereo not shown) [a13c] , test system FKBP12 (Homo sapiens), was 1.7

Readout Kd for Cc1sc2c(c1C)C(c1ccc(Cl)cc1)=NC(CC(=O)N1CC(CN3CCC(n4cc(COCC5CN(Cc6ccccn6)C(=O)C6CCCC5N6S(=O)(=O)c5cc(Cl)cc(Cl)c5)nn4)CC3)C1)c1nnc(C)n1-2 (stereo not shown) [a11d] , test system FKBP12 (Homo sapiens), was 0.8

Readout Kd for Cc1sc2c(c1C)C(c1ccc(Cl)cc1)=NC(CC(=O)N1CCN(CCn3cc(COCC4CN(Cc5ccccn5)C(=O)C5CCCC4N5S(=O)(=O)c4cc(Cl)cc(Cl)c4)nn3)CC1)c1nnc(C)n1-2 (stereo not shown) , test system FKBP12 (Homo sapiens), was 1.1

Readout Kd for Cc1sc2c(c1C)C(c1ccc(Cl)cc1)=NC(CC(=O)NCCOCCn1cc(COC(C)C3CN(Cc4ccccn4)C(=O)C4CCCC3N4S(=O)(=O)c3cc(Cl)cc(Cl)c3)nn1)c1nnc(C)n1-2 (stereo not shown) [a1e] , test system FKBP12 (Homo sapiens), was 8.9

Readout Kd for Cc1sc2c(c1C)C(c1ccc(Cl)cc1)=NC(CC(=O)NCCOCCn1cc(COC(C)C3CN(Cc4ccccn4)C(=O)C4CCCC3N4S(=O)(=O)c3cc(Cl)cc(Cl)c3)nn1)c1nnc(C)n1-2 (stereo not shown) [a1f] , test system FKBP12 (Homo sapiens), was 1.6

====

target: BRD4 43-463 (Homo sapiens, UniProt O60885); test: competitive FP assay, BRD4 tandem bromo domain construct; assay type: binding; settings: Binding to BRD4 43-463 + FKBP12 Kd, 15 µM FKBP12
Attribute: pKd
Scale: pKd equals -log10([C]), with [C] in mol/L.

Example results:
MOLECULE	QUANTITATIVE READOUT
Cc1sc2c(c1C)C(c1ccc(Cl)cc1)=NC(CC(=O)NCCOCCn1cc(COCC3CN(C(C)c4ccccn4)C(=O)C4CCCC3N4S(=O)(=O)c3cc(Cl)cc(Cl)c3)nn1)c1nnc(C)n1-2 (stereo not shown)	7.51
Cc1sc2c(c1C)C(c1ccc(Cl)cc1)=NC(CC(=O)NCCOCCn1cc(COCC3CN(Cc4ccccn4)C(=O)C4CCCC3N4S(=O)(=O)c3cc(Cl)cc(Cl)c3)nn1)c1nnc(C)n1-2 (stereo not shown)	7.59
Cc1sc2c(c1C)C(c1ccc(Cl)cc1)=NC(CC(=O)N1CCC3(CC1)CC(n1cc(C4CN(Cc5ccccn5)C(=O)C5CCCC4N5S(=O)(=O)c4cc(Cl)cc(Cl)c4)nn1)C3)c1nnc(C)n1-2 (stereo not shown) [a13c]	7.41

// moving on: another record for pKd
Item: Cc1sc2c(c1C)C(c1ccc(C#CCNC(=O)COCCn3cc(C4CN(Cc5ccccn5)C(=O)C5CCCC4N5S(=O)(=O)c4cc(Cl)cc(Cl)c4)nn3)cc1)=NC(CC(=O)OC(C)(C)C)c1nnc(C)n1-2 (stereo not shown) | pKd: 7.85

====

FKBP12 (Homo sapiens, UniProt P62942): reported log10 of Kd for various compounds.
Sequence (P62942 whole entry): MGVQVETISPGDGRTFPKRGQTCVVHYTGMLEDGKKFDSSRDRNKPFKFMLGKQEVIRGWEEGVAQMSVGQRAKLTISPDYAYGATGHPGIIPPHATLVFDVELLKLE
The base-10 logarithm of Kd, taken with Kd in nM, is what appears here.

Example results:
COMPOUND	TGT	log10 of Kd
Cc1sc2c(c1C)C(c1ccc(Cl)cc1)=NC(CC(=O)N1CCN(CCCn3cc(COCC4CN(Cc5ccccn5)C(=O)C5CCCC4N5S(=O)(=O)c4cc(Cl)cc(Cl)c4)nn3)CC1)c1nnc(C)n1-2 (centres unmarked)	FKBP12 (Homo sapiens, UniProt P62942)	0.08
C=CC1CN(Cc2ccccn2)C(=O)C2CCCC1N2S(=O)(=O)c1cc(Cl)cc(-c2cn(CCOCCNC(=O)CC3N=C(c4ccc(Cl)cc4)c4c(sc(C)c4C)-n4c(C)nnc43)nn2)c1 (centres unmarked)	FKBP12 (Homo sapiens, UniProt P62942)	1.66

Readout log10 of Kd for Cc1sc2c(c1C)C(c1ccc(Cl)cc1)=NC(CC(=O)N1CC(CN3CCC(Cn4cc(COCC5CN(Cc6ccccn6)C(=O)C6CCCC5N6S(=O)(=O)c5cc(Cl)cc(Cl)c5)nn4)CC3)C1)c1nnc(C)n1-2 (centres unmarked) [a12d] , test system FKBP12 (Homo sapiens, UniProt P62942), was 0.36

Readout log10 of Kd for Cc1sc2c(c1C)C(c1ccc(Cl)cc1)=NC(CC(=O)N1CCC(CN3CCC(Cn4cc(COCC5CN(Cc6ccccn6)C(=O)C6CCCC5N6S(=O)(=O)c5cc(Cl)cc(Cl)c5)nn4)CC3)CC1)c1nnc(C)n1-2 (centres unmarked) , test system FKBP12 (Homo sapiens, UniProt P62942), was 0.26

Readout log10 of Kd for Cc1sc2c(c1C)C(c1ccc(Cl)cc1)=NC(CC(=O)NCCOCCOCCn1cc(C3CN(Cc4ccccn4)C(=O)C4CCCC3N4S(=O)(=O)c3cc(Cl)cc(Cl)c3)nn1)c1nnc(C)n1-2 (centres unmarked) , test system FKBP12 (Homo sapiens, UniProt P62942), was -0.22

====

target: BRD4^BD2 (Homo sapiens, UniProt O60885); construct: to the isolated BD1 and BD2 domains of BRD2, BRD3 and BRD4; experiment: competitive fluorescence polarization assay, BRD4 BD2 -/+ presenter protein; assay type: binding; details: ratio of binding in absence or presence of FKBP12
Label YES when α BRD4^BD2 (binding cooperativity factor) is strictly below 0.8; at or above that, label NO.

Record excerpt, results attached:
MOLECULE	TGT	LABEL CLASS
Cc1sc2c(c1C)C(c1ccc(Cl)cc1)=NC(CC(=O)N1CCC(N3CCC(n4cc(C5CN(Cc6ccccn6)C(=O)C6CCCC5N6S(=O)(=O)c5cc(Cl)cc(Cl)c5)nn4)CC3)CC1)c1nnc(C)n1-2 (stereo not shown)	BRD4^BD2 (Homo sapiens, UniProt O60885)	YES
Cc1sc2c(c1C)C(c1ccc(Cl)cc1)=NC(CC(=O)NCCOCCn1cc(COCC3CN(CC(=O)N4CCC(C)CC4)C(=O)C4CCCC3N4S(=O)(=O)c3cc(Cl)cc(Cl)c3)nn1)c1nnc(C)n1-2 (stereo not shown)	BRD4^BD2 (Homo sapiens, UniProt O60885)	YES
Cc1sc2c(c1C)C(c1ccc(Cl)cc1)=NC(CC(=O)N1CCN(CCCn3cc(COCC4CN(Cc5ccccn5)C(=O)C5CCCC4N5S(=O)(=O)c4cc(Cl)cc(Cl)c4)nn3)CC1)c1nnc(C)n1-2 (stereo not shown)	BRD4^BD2 (Homo sapiens, UniProt O60885)	NO
C=CC1CN(Cc2ccccn2)C(=O)C2CCCC1N2S(=O)(=O)c1cc(Cl)cc(-c2cn(CCOCCOCCNC(=O)CC3N=C(c4ccc(Cl)cc4)c4c(sc(C)c4C)-n4c(C)nnc43)nn2)c1 (stereo not shown)	BRD4^BD2 (Homo sapiens, UniProt O60885)	YES
Cc1sc2c(c1C)C(c1ccc(Cl)cc1)=NC(CC(=O)N1CC(CN3CCC(n4cc(C5CN(Cc6ccccn6)C(=O)C6CCCC5N6S(=O)(=O)c5cc(Cl)cc(Cl)c5)nn4)CC3)C1)c1nnc(C)n1-2 (stereo not shown) [a11c]	BRD4^BD2 (Homo sapiens, UniProt O60885)	NO

Just wondering, is α BRD4^BD2 (binding cooperativity factor) of Cc1sc2c(c1C)C(c1ccc(Cl)cc1)=NC(CC(=O)N1CCC(N3CCC(Cn4cc(COCC5CN(Cc6ccccn6)C(=O)C6CCCC5N6S(=O)(=O)c5cc(Cl)cc(Cl)c5)nn4)CC3)CC1)c1nnc(C)n1-2 (stereo not shown) [a10d] below 0.8?
NO

Just wondering, is α BRD4^BD2 (binding cooperativity factor) of Cc1sc2c(c1C)C(c1ccc(Cl)cc1)=NC(CC(=O)N1CC(CN3CCC(n4cc(COCC5CN(Cc6ccccn6)C(=O)C6CCCC5N6S(=O)(=O)c5cc(Cl)cc(Cl)c5)nn4)CC3)C1)c1nnc(C)n1-2 (stereo not shown) [a11d] below 0.8?
NO

Just wondering, is α BRD4^BD2 (binding cooperativity factor) of C=CC1CN(Cc2cn(CCOCCOCCNC(=O)CC3N=C(c4ccc(Cl)cc4)c4c(sc(C)c4C)-n4c(C)nnc43)nn2)C(=O)C2CCCC1N2S(=O)(=O)c1cc(Cl)cc(Cl)c1 (stereo not shown) below 0.8?
YES

Just wondering, is α BRD4^BD2 (binding cooperativity factor) of Cc1sc2c(c1C)C(c1ccc(Cl)cc1)=NC(CC(=O)NCCOCCn1cc(COCC3CN(Cc4ccccn4)C(=O)C4CCCC3N4S(=O)(=O)c3cc(Cl)cc(Cl)c3)nn1)c1nnc(C)n1-2 (stereo not shown) below 0.8?
NO

Just wondering, is α BRD4^BD2 (binding cooperativity factor) of Cc1sc2c(c1C)C(c1ccc(Cl)cc1)=NC(CC(=O)NCCOCCn1cc(COC(C)C3CN(Cc4ccccn4)C(=O)C4CCCC3N4S(=O)(=O)c3cc(Cl)cc(Cl)c3)nn1)c1nnc(C)n1-2 (stereo not shown) [a1f] below 0.8?
YES

Just wondering, is α BRD4^BD2 (binding cooperativity factor) of Cc1sc2c(c1C)C(c1ccc(Cl)cc1)=NC(CC(=O)NCCOCCn1cc(C3CN(Cc4ccccn4)C(=O)C4CCCC3N4S(=O)(=O)c3cc(Cl)cc(Cl)c3)nn1)c1nnc(C)n1-2 (stereo not shown) below 0.8?
YES

Just wondering, is α BRD4^BD2 (binding cooperativity factor) of Cc1sc2c(c1C)C(c1ccc(Cl)cc1)=NC(CC(=O)N1CCC(N3CCC(n4cc(COCC5CN(Cc6ccccn6)C(=O)C6CCCC5N6S(=O)(=O)c5cc(Cl)cc(Cl)c5)nn4)CC3)CC1)c1nnc(C)n1-2 (stereo not shown) below 0.8?
NO

Just wondering, is α BRD4^BD2 (binding cooperativity factor) of Cc1sc2c(c1C)C(c1ccc(Cl)cc1)=NC(CC(=O)N1CCC(CN3CCC(Cn4cc(COCC5CN(Cc6ccccn6)C(=O)C6CCCC5N6S(=O)(=O)c5cc(Cl)cc(Cl)c5)nn4)CC3)CC1)c1nnc(C)n1-2 (stereo not shown) below 0.8?
NO

Just wondering, is α BRD4^BD2 (binding cooperativity factor) of Cc1sc2c(c1C)C(c1ccc(Cl)cc1)=NC(CC(=O)NCCOCCn1cc(COCC3CN(C(C)c4ccccn4)C(=O)C4CCCC3N4S(=O)(=O)c3cc(Cl)cc(Cl)c3)nn1)c1nnc(C)n1-2 (stereo not shown) below 0.8?
NO
